Measured MIC by item
System: Streptococcus pneumoniae IMC B-1234 (PRSP)
Assay: Antimicrobial activity test (MIC), clinical isolate IMC B-1234
Type: cell-based
Details: Streptococcus pneumoniae IMC B-1234, PRSP
Procedure: Using Streptococcus pneumoniae that include clinical isolates of PRSP, the antimicrobial activity of each of the prepared anti-PRSP agents was measured in accordance with the “determination method of minimum inhibitory concentration of drug against bacteria” of Japanese Society of Chemotherapy (for re-revised version, see Chemotherapy 29; 76, 1981). […]
# output: bare number, implied unit µg/mL

CCC1OC(=O)CCC(C)C(OC2OC(C)CC(N(C)C)C2O)C(CC=O)CC(C)C(=O)C=CC(C)=CC1CN1CCC(CCO)CC1 (stereo not drawn) [MKT-6113]: 0.39

// moving on: another record for MIC
Item CCC1OC(=O)CCC(C)C(OC2OC(C)CC(N(C)C)C2O)C(CC=O)CC(C)C(=O)C=CC(C)=CC1CNC(=O)Cc1cccnc1 (stereo not drawn) [MKT-3216] has what recorded MIC? 0.05

---

Measured MIC by item
System: Streptococcus pneumoniae IMC B-0922 (PRSP)
Experiment: Antimicrobial activity test (MIC), clinical isolate IMC B-0922
Type: cell-based
Settings: PRSP clinical isolate IMC B-0922
Description: Using Streptococcus pneumoniae that include clinical isolates of PRSP, the antimicrobial activity of each of the prepared anti-PRSP agents was measured in accordance with the “determination method of minimum inhibitory concentration of drug against bacteria” of Japanese Society of Chemotherapy (for re-revised version, see Chemotherapy 29; 76, 1981). […]
# output: bare number, implied unit µg/mL

Reference set, count: 10
CCC1OC(=O)CCC(C)C(OC2OC(C)CC(N(C)C)C2O)C(CC=O)CC(C)C(=O)C=CC(C)=CC1CI (centres unmarked): 0.2
CCC1OC(=O)CCC(C)C(OC2OC(C)CC(N(C)C)C2O)C(CC=O)CC(C)C(=O)C=CC(C)=CC1CNC(C)=O (centres unmarked): 0.39
C=CCOCC1C=C(C)C=CC(=O)C(C)CC(CC=O)C(OC2OC(C)CC(N(C)C)C2O)C(C)CCC(=O)OC1CC (centres unmarked): 0.1
CCC1OC(=O)CCC(C)C(OC2OC(C)CC(N(C)C)C2O)C(CC=O)CC(C)C(=O)C=CC(C)=CC1CN(C)CCc1ccc(OC)c(OC)c1 (centres unmarked): 0.78
CCC1OC(=O)CCC(C)C(OC2OC(C)CC(N(C)C)C2O)C(CC=O)CC(C)C(=O)C=CC(C)=CC1COC(C)=O (centres unmarked): 0.1
CCC1OC(=O)CCC(C)C(OC2OC(C)CC(N(C)C)C2O)C(CC=O)CC(C)C(=O)C=CC(C)=CC1CN(C)Cc1ccccc1 (centres unmarked): 0.1
CCC1OC(=O)CCC(C)C(OC2OC(C)CC(N(C)C)C2O)C(CC=O)CC(C)C(=O)C=CC(C)=CC1COC(=O)Cc1ccccc1 (centres unmarked): 0.1
CCC1OC(=O)CCC(C)C(OC2OC(C)CC(N(C)C)C2O)C(CC=O)CC(C)C(=O)C=CC(C)=CC1COC(=O)NCc1ccc(OC)cc1 (centres unmarked): 0.2
CCC1OC(=O)CCC(C)C(OC2OC(C)CC(N(C)C)C2O)C(CC=O)CC(C)C(=O)C=CC(C)=CC1CN(C)C (centres unmarked): 0.39
CCC1OC(=O)CCC(C)C(OC2OC(C)CC(N(C)C)C2O)C(CC=O)CC(C)C(=O)C=CC(C)=CC1CN=[N+]=[N-] (centres unmarked): 0.1

Quick check: MIC on Streptococcus pneumoniae IMC B-0922 (PRSP), item CCC1OC(=O)CCC(C)C(OC2OC(C)CC(N(C)C)C2O)C(CC=O)CC(C)C(=O)C=CC(C)=CC1CSc1ncccn1 (centres unmarked) ? 0.05

Quick check: MIC on Streptococcus pneumoniae IMC B-0922 (PRSP), item CCC1OC(=O)CCC(C)C(OC2OC(C)CC(N(C)C)C2O)C(CC=O)CC(C)C(=O)C=CC(C)=CC1CN (centres unmarked) ? 0.39
